biological target: Sigma intracellular receptor 2 (Homo sapiens); assay: Binding affinity to sigma 2 receptor (unknown origin)
Sequence (Q5BJF2 whole entry): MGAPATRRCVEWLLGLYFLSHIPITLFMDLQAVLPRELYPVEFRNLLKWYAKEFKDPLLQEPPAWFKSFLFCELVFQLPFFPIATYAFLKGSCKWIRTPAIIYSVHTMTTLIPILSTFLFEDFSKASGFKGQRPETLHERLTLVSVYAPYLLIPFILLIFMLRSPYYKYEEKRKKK
valueKind: Ki (µM)
# output: bare number, implied unit µM

Requested read-out: Ki. Entry: CC(C)(C)Cc1c(C#Cc2ccccc2F)sc(N)c1C(=O)c1ccc(Cl)cc1 1.4
